Catalogue of GI50 readings, one per entry.
# System: UACC-62
# Test name: NCI tumour cell line growth inhibition, 48 h
The source made the active and inactive calls. No stated cut-off is given here; in the data, active = GI50 up to about 1.1 µM and inactive = higher.

{"columns": ["Molecule", "GI50"],
 "data": [
  ["O=c1cc(-c2ccccc2)[nH]c2ccc(S)cc12", "17.2 µM (inactive)"],
  ["O=C1/C(=C2/C(=O)N(c3ccccc3)c3ccccc32)Nc2ccccc21", "> 100 µM (inactive)"],
  ["O=C(CCc1ccc(O)c(O)c1)c1ccc(O)c(O)c1O", "25.9 µM (inactive)"],
  ["Cc1c(N2CCOCC2)nc2ccc(Cl)cc2c1-c1ccccc1", "> 100 µM (inactive)"],
  ["COc1ccc(NCc2cccc3c(=O)c4ccc(Cl)cc4oc23)cc1", "> 100 µM (inactive)"],
  ["Cc1cc(C)c2c(O)c(S(=O)(=O)c3ccc(Cl)cc3)c(=O)oc2c1", "58.6 µM (inactive)"]
]}

---

# Tested on: EKVX
# Test name: NCI tumour cell line growth inhibition, 48 h
Activity calls are given as the source filed them. No stated cut-off is given here; in the data, active = GI50 up to about 1.1 µM and inactive = higher.
Catalogue of GI50 readings, one per entry.

{"columns": ["Compound", "GI50"],
 "data": [
  ["C[C@]12CC[C@@H]3c4ccc(OS(N)(=O)=O)cc4CC[C@H]3[C@@H]1CCC2=O [EMATE]", "5.07 µM (inactive)"],
  ["C=C1C(=O)O[C@@H]2C[C@@]3(C)CCC[C@H](C)C3=C[C@H]12", "15 µM (inactive)"],
  ["C[N+](C)(C)CC(=O)N/N=C(\\C(=O)NC1=C(Cl)C(=O)c2ccccc2C1=O)C(C#N)c1nc(-c2ccc([N+](=O)[O-])cc2)cs1 (centres undefined)", "14.1 µM (inactive)"],
  ["Cc1ccc(S(=O)(=O)ON/N=C2/C3OC3[C@@H]3CCCC[C@H]23)cc1 (some centres undefined)", "> 100 µM (inactive)"]
]}

---

# Tested on: SF-268
# Test name: NCI tumour cell line growth inhibition, 48 h
Calls of active or inactive are those of the source. Rule as the data show it: active = GI50 up to about 1.1 µM and inactive = higher.

{"columns": ["Compound", "GI50"],
 "data": [
  ["C#CCSc1nc(N)c2ncn(C3OC(COP(=O)(O)O)C(O)C3O)c2n1 (centres undefined)", "> 239 µM (inactive)"],
  ["COc1ccc2[nH]cc(CN3CCC(CO)(c4ccccc4)CC3)c2c1", "11.9 µM (inactive)"],
  ["C=C1C(=O)O[C@H]2[C@H]1[C@H](OC(=O)/C(C)=C\\C)C[C@]1(CO1)[C@@H]1[C@H](OC(C)=O)C=C(C)[C@]21O [EUPAROTIN ACETATE]", "19.2 µM (inactive)"],
  ["COc1cc(NCC(C#N)C#N)ccc1/N=N/c1ccc([N+](=O)[O-])cc1", "> 100 µM (inactive)"],
  ["COc1ccc(OC)c(NC(=O)C2=C(C)NC(C)=C(C(=O)Nc3cc(OC)ccc3OC)C2c2ccco2)c1", "> 100 µM (inactive)"],
  ["COC(=O)c1ccc2n1C1CC3CC(CC2C3)C1", "> 100 µM (inactive)"],
  ["CC(C)C(/C=C/c1ccc(Cl)cc1)=N\\NC(=O)N/N=C(/C=C/c1ccc(Cl)cc1)C(C)C", "20 µM (inactive)"],
  ["CCOc1ccc2nc(NC(=O)C(=O)C(C#N)CC(C)(C)C=O)sc2c1 (centres undefined)", "> 100 µM (inactive)"],
  ["CN(C)c1ccc(Cc2cc3c(O)ccc(O)c3cc(Cc3ccc(N(C)C)cc3)c2=O)cc1", "29.6 µM (inactive)"],
  ["CCOC(=O)NC(Nc1ccc([N+](=O)[O-])cc1)(C(F)(F)F)C(F)(F)F", "> 100 µM (inactive)"],
  ["COc1c(CC=C(C)C)c(O)c(C(CC(C)C)c2c(O)c3c(c(C(C)=O)c2O)OC(C(C)(C)O)C3)c(O)c1C(C)=O (centres undefined)", "4.53 µM (inactive)"],
  ["COC(=O)c1cnn2c1ccc1ccccc12", "> 100 µM (inactive)"],
  ["CC(=O)c1ccc2c(c1)N(CCCN1CCN(CCO)CC1)c1ccccc1C2", "17.8 µM (inactive)"],
  ["COc1ccc(/C=C/c2cc(OC)cc(=O)o2)cc1", "60.1 µM (inactive)"],
  ["COc1ccccc1C(=O)OCC1CCCN2CCCCC12 (centres undefined)", "36.5 µM (inactive)"],
  ["Cc1ccc(CC(=O)Nc2ccc(NC(=O)CNC(=O)/C=C/c3ccc(-c4ccccc4)cc3)cc2C(=O)c2ccccc2)cc1", "2.45 µM (inactive)"],
  ["O=S1(=O)C[C@@H](NCc2ccccc2)[C@H](NCc2ccccc2)C1", "> 100 µM (inactive)"],
  ["COC(=O)Nc1nc2cc(C(=O)c3ccc[nH]3)ccc2[nH]1", "2.04 µM (inactive)"],
  ["COc1ccc2c(c1)C1=NCCN(CCN(C)C)c3ccc([N+](=O)[O-])c(c31)N2", "0.509 µM (active)"]
]}

---

# Test system: HCT-116
# Test name: NCI tumour cell line growth inhibition, 48 h
The source made the active and inactive calls. Cut-off read from the data, not from the text of the source: active = GI50 up to about 1.1 µM and inactive = higher.
Labels: TRUE for active, FALSE for inactive

{"columns": ["Compound", "Class label"],
 "data": [
  ["CC1OC1C(=O)C1(O)C(C)C(O)C23OC2(C(O)c2c(O)cccc2C3=O)C1O (stereo not given)", "TRUE"],
  ["Cc1cc(=O)oc2cc(OCC(O)COC(C)C)ccc12 (stereo not given)", "FALSE"],
  ["CC(=O)Nc1ccc(C(=O)NN2C(=O)C(Cl)C2c2ccc([N+](=O)[O-])cc2)cc1 (stereo not given)", "FALSE"],
  ["COc1ccc2c3c1O[C@H]1C[C@@H](O)C=C[C@@]31CCN(C)C2", "FALSE"],
  ["COC(=O)c1cnn2c1ccc1ccccc12", "FALSE"]
]}

---

# Test system: SF-539
# Test name: NCI tumour cell line growth inhibition, 48 h
Calls of active or inactive are those of the source. Rule as the data show it: active = GI50 up to about 1.1 µM and inactive = higher.
Labels: T for active, F for inactive

{"columns": ["Compound", "Target or system", "Class label"],
 "data": [
  ["COc1ccc2c(c1)C1=NCCN(CCN(C)C)c3ccc([N+](=O)[O-])c(c31)N2", "SF-539", "T"],
  ["CC(C)C(CCOS(=O)(=O)O)CCC(C)[C@H]1[C@@H](O)C(O)C2[C@]3(O)C[C@@H](O)C4(O)C[C@@H](O)CC[C@]4(C)C3CC[C@@]21C (stereo not given in full)", "SF-539", "F"],
  ["Cc1ccccc1Nc1nc(NNC(=O)Cc2ccccc2)nc(NNC(=O)c2ccncc2)n1", "SF-539", "F"],
  ["O=C1/C(=C/c2ccccc2)CN(C(=O)/C=C/c2ccccc2)C/C1=C\\c1ccccc1", "SF-539", "F"],
  ["Cc1cn(C2CC(O)C(CO[Si](C)(C)C(C)(C)C)OC2OC(C)C)c(=O)[nH]c1=O (stereo not given)", "SF-539", "F"],
  ["CCOC(=O)C(CO)c1nc2c([nH]c1=O)c(=O)n(C)c(=O)n2C (stereo not given)", "SF-539", "F"],
  ["CN1CCN(c2ccc3[nH]c(-c4ccc5[nH]c(CCCc6ccc(N(CCCl)CCCl)cc6)nc5c4)nc3c2)CC1", "SF-539", "F"],
  ["CN(C)c1nc(N(C)C)nc(N(C)CN(C)c2nc(N(C)C)nc(N(C)C)n2)n1", "SF-539", "F"],
  ["O=C(O)c1cccc(F)c1C(=O)c1ccc2ccccc2c1", "SF-539", "F"],
  ["Cc1cc(C)c2c(c1)CC1(Cc3c(C)cc(C)cc3C1=O)C2=O (stereo not given)", "SF-539", "F"],
  ["COC(=O)c1ccc(/C=N/c2ccc(S(N)(=O)=O)cc2)cc1", "SF-539", "F"],
  ["C=C1C(=O)O[C@H]2[C@H]1[C@H](OC(=O)/C(C)=C\\C)C[C@]1(CO1)[C@@H]1[C@H](OC(C)=O)C=C(C)[C@]21O [EUPAROTIN ACETATE]", "SF-539", "F"],
  ["COc1ccc2ccc3oc(=O)c(C)cc3c2c1", "SF-539", "F"],
  ["CCCCCCCCCCCCCCCC(=O)OCC(O)C1OC(=O)C(O)=C1O (stereo not given)", "SF-539", "F"],
  ["O=C(C1OC1c1cccc([N+](=O)[O-])c1)C12CC3CC(CC(C3)C1)C2 (stereo not given)", "SF-539", "F"],
  ["NC(=S)Nc1nc(=S)[nH]c2[nH]ccc12", "SF-539", "F"],
  ["O=C1OC(c2ccccc2)=N/C1=C\\c1ccc(Br)cc1", "SF-539", "F"],
  ["C[N+](C)(C)CC1CCCC1=O (stereo not given)", "SF-539", "F"],
  ["O=C1c2cccc3cc([N+](=O)[O-])cc(c23)C(=O)N1CCCN1CCN(CCCN2C(=O)c3cccc4cc([N+](=O)[O-])cc(c34)C2=O)CC1", "SF-539", "T"],
  ["COc1ccc(NCc2cccc3c(=O)c4ccc(Cl)cc4oc23)cc1", "SF-539", "F"]
]}
